tested on: Escherichia coli TOP10; assay: shrunken log2 fold change of peptide-encoding DNA abundance (4.5 h post-induction vs induction); higher = less antimicrobial activity (less host growth inhibition); details: time post-induction: 4.5 h; library: site-saturation at positions 5, 18, 19, 20
Entry class follows shrunken log2 fold change: LOW: < -0.1; MID: ≥ -0.1 and < 0.05; HIGH: ≥ 0.05

- sequence-data: "RRIRFRPPRLPRPRPRPEDMPRP"
  category-label: "MID"
- sequence-data: "RRIRWRPPRLPRPRPRPHGMPRP"
  category-label: "MID"
- sequence-data: "RRIRFRPPRLPRPRPRPAKLPRP"
  category-label: "LOW"
- sequence-data: "RRIRYRPPRLPRPRPRPLWAPRP"
  category-label: "LOW"
- sequence-data: "RRIRHRPPRLPRPRPRPCFHPRP"
  category-label: "LOW"
- sequence-data: "RRIRGRPPRLPRPRPRPVNLPRP"
  category-label: "LOW"
- sequence-data: "RRIRRRPPRLPRPRPRPNSWPRP"
  category-label: "MID"
- sequence-data: "RRIRDRPPRLPRPRPRPLCMPRP"
  category-label: "HIGH"
- sequence-data: "RRIRNRPPRLPRPRPRPCFYPRP"
  category-label: "LOW"
- sequence-data: "RRIRLRPPRLPRPRPRPSEGPRP"
  category-label: "LOW"
- sequence-data: "RRIRCRPPRLPRPRPRPCNWPRP"
  category-label: "LOW"
- sequence-data: "RRIRRRPPRLPRPRPRPMDMPRP"
  category-label: "HIGH"
- sequence-data: "RRIRTRPPRLPRPRPRPSKIPRP"
  category-label: "LOW"
- sequence-data: "RRIRPRPPRLPRPRPRPPACPRP"
  category-label: "HIGH"
- sequence-data: "RRIRIRPPRLPRPRPRPDWKPRP"
  category-label: "MID"
- sequence-data: "RRIRKRPPRLPRPRPRPAYQPRP"
  category-label: "MID"
- sequence-data: "RRIRHRPPRLPRPRPRPIHSPRP"
  category-label: "MID"
- sequence-data: "RRIRMRPPRLPRPRPRPNFIPRP"
  category-label: "LOW"
- sequence-data: "RRIRQRPPRLPRPRPRPPFNPRP"
  category-label: "LOW"
- sequence-data: "RRIRMRPPRLPRPRPRPINYPRP"
  category-label: "LOW"
- sequence-data: "RRIRVRPPRLPRPRPRPALCPRP"
  category-label: "HIGH"
- sequence-data: "RRIRQRPPRLPRPRPRPDKHPRP"
  category-label: "LOW"
- sequence-data: "RRIRCRPPRLPRPRPRPLHAPRP"
  category-label: "HIGH"
- sequence-data: "RRIRHRPPRLPRPRPRPYEGPRP"
  category-label: "MID"
- sequence-data: "RRIRLRPPRLPRPRPRPNKEPRP"
  category-label: "HIGH"
- sequence-data: "RRIRTRPPRLPRPRPRPPVWPRP"
  category-label: "MID"
- sequence-data: "RRIRYRPPRLPRPRPRPAPSPRP"
  category-label: "MID"
- sequence-data: "RRIRERPPRLPRPRPRPGARPRP"
  category-label: "HIGH"
- sequence-data: "RRIRWRPPRLPRPRPRPYDYPRP"
  category-label: "LOW"
- sequence-data: "RRIRMRPPRLPRPRPRPLPRPRP"
  category-label: "HIGH"
- sequence-data: "RRIRMRPPRLPRPRPRPIGDPRP"
  category-label: "MID"
- sequence-data: "RRIRWRPPRLPRPRPRPKRMPRP"
  category-label: "HIGH"
- sequence-data: "RRIRKRPPRLPRPRPRPYATPRP"
  category-label: "HIGH"
- sequence-data: "RRIRRRPPRLPRPRPRPMFQPRP"
  category-label: "HIGH"
- sequence-data: "RRIRVRPPRLPRPRPRPHWAPRP"
  category-label: "HIGH"
- sequence-data: "RRIRTRPPRLPRPRPRPTTIPRP"
  category-label: "LOW"
- sequence-data: "RRIRLRPPRLPRPRPRPYQAPRP"
  category-label: "MID"
- sequence-data: "RRIRMRPPRLPRPRPRPNMIPRP"
  category-label: "LOW"
- sequence-data: "RRIRTRPPRLPRPRPRPAMRPRP"
  category-label: "HIGH"
- sequence-data: "RRIRCRPPRLPRPRPRPGLRPRP"
  category-label: "HIGH"
- sequence-data: "RRIRSRPPRLPRPRPRPNFSPRP"
  category-label: "LOW"
- sequence-data: "RRIRVRPPRLPRPRPRPEQLPRP"
  category-label: "HIGH"

---

Form field: shrunken log2 fold change (one value per entry).
test system: Escherichia coli TOP10; test: shrunken log2 fold change of peptide-encoding DNA abundance (4.5 h post-induction vs induction); higher = less antimicrobial activity (less host growth inhibition); details: time post-induction: 4.5 h; library: site-saturation at positions 5, 18, 19, 20
measure: shrunken log2 fold change

- sequence-data: "RRIRDRPPRLPRPRPRPKVIPRP"
  test-target: "Escherichia coli TOP10"
  measure: "shrunken log2 fold change"
  result: -0.176
- sequence-data: "RRIRMRPPRLPRPRPRPAPPPRP"
  test-target: "Escherichia coli TOP10"
  measure: "shrunken log2 fold change"
  result: 1.43
- sequence-data: "RRIRDRPPRLPRPRPRPMYVPRP"
  test-target: "Escherichia coli TOP10"
  measure: "shrunken log2 fold change"
  result: -0.243
- sequence-data: "RRIRFRPPRLPRPRPRPREFPRP"
  test-target: "Escherichia coli TOP10"
  measure: "shrunken log2 fold change"
  result: 0.0793
- sequence-data: "RRIRWRPPRLPRPRPRPIWVPRP"
  test-target: "Escherichia coli TOP10"
  measure: "shrunken log2 fold change"
  result: -0.0257
- sequence-data: "RRIRTRPPRLPRPRPRPVQAPRP"
  test-target: "Escherichia coli TOP10"
  measure: "shrunken log2 fold change"
  result: 0.0641
- sequence-data: "RRIRSRPPRLPRPRPRPDGMPRP"
  test-target: "Escherichia coli TOP10"
  measure: "shrunken log2 fold change"
  result: -0.113
- sequence-data: "RRIRARPPRLPRPRPRPDMRPRP"
  test-target: "Escherichia coli TOP10"
  measure: "shrunken log2 fold change"
  result: 0.737
- sequence-data: "RRIRERPPRLPRPRPRPYAYPRP"
  test-target: "Escherichia coli TOP10"
  measure: "shrunken log2 fold change"
  result: -0.000687
- sequence-data: "RRIRKRPPRLPRPRPRPQRRPRP"
  test-target: "Escherichia coli TOP10"
  measure: "shrunken log2 fold change"
  result: 0.734

---

tested on: Escherichia coli TOP10; experiment: shrunken log2 fold change of peptide-encoding DNA abundance (4.5 h post-induction vs induction); higher = less antimicrobial activity (less host growth inhibition); conditions: time post-induction: 4.5 h; library: site-saturation at positions 5, 18, 19, 20;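 further: peptides expressed intracellularly from a pBAD plasmid library in pooled LB shake-flask culture, induced with 0.3% L-arabinose, DNA abundance read by NGS, three biological replicates, DESeq2 with apeglm shrinkage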
measure: shrunken log2 fold change

- sequence-data: "RRIRNRPPRLPRPRPRPPQPPRP"
  result: 0.621
- sequence-data: "RRIRARPPRLPRPRPRPFQMPRP"
  result: -0.0651
- sequence-data: "RRIRQRPPRLPRPRPRPTSMPRP"
  result: -0.049
- sequence-data: "RRIRHRPPRLPRPRPRPACLPRP"
  result: -0.221
- sequence-data: "RRIRMRPPRLPRPRPRPYLNPRP"
  result: 0.00358
- sequence-data: "RRIRERPPRLPRPRPRPRTYPRP"
  result: -0.517
- sequence-data: "RRIRARPPRLPRPRPRPITVPRP"
  result: -0.201
- sequence-data: "RRIRSRPPRLPRPRPRPCVCPRP"
  result: 0.0568
- sequence-data: "RRIRSRPPRLPRPRPRPYDKPRP"
  result: 0.0507
- sequence-data: "RRIRDRPPRLPRPRPRPARQPRP"
  result: 0.212
- sequence-data: "RRIRLRPPRLPRPRPRPPMIPRP"
  result: -0.0218
- sequence-data: "RRIRGRPPRLPRPRPRPMGPPRP"
  result: 0.846
- sequence-data: "RRIRSRPPRLPRPRPRPNMKPRP"
  result: -0.436
- sequence-data: "RRIRARPPRLPRPRPRPQNTPRP"
  result: -0.286
- sequence-data: "RRIRWRPPRLPRPRPRPWGGPRP"
  result: 0.556
- sequence-data: "RRIRPRPPRLPRPRPRPLSYPRP"
  result: 0.0626
- sequence-data: "RRIRMRPPRLPRPRPRPMFGPRP"
  result: 0.0113
- sequence-data: "RRIRIRPPRLPRPRPRPHPMPRP"
  result: -0.133
- sequence-data: "RRIRNRPPRLPRPRPRPRTHPRP"
  result: -0.184
- sequence-data: "RRIRCRPPRLPRPRPRPNEHPRP"
  result: -0.553
- sequence-data: "RRIRWRPPRLPRPRPRPNFYPRP"
  result: -0.232
- sequence-data: "RRIRYRPPRLPRPRPRPIGKPRP"
  result: 0.0104
- sequence-data: "RRIRMRPPRLPRPRPRPDMAPRP"
  result: 1.86
- sequence-data: "RRIRLRPPRLPRPRPRPKKCPRP"
  result: -0.198
- sequence-data: "RRIRRRPPRLPRPRPRPKFQPRP"
  result: -0.00642
- sequence-data: "RRIRRRPPRLPRPRPRPGACPRP"
  result: 0.475
- sequence-data: "RRIRPRPPRLPRPRPRPIFIPRP"
  result: -0.389
- sequence-data: "RRIRCRPPRLPRPRPRPWFCPRP"
  result: -0.177
- sequence-data: "RRIRRRPPRLPRPRPRPCIDPRP"
  result: -0.211
- sequence-data: "RRIRIRPPRLPRPRPRPAVTPRP"
  result: -0.322
- sequence-data: "RRIRMRPPRLPRPRPRPNTYPRP"
  result: -0.0596
- sequence-data: "RRIRCRPPRLPRPRPRPIITPRP"
  result: -0.892
- sequence-data: "RRIRLRPPRLPRPRPRPILNPRP"
  result: -0.389
- sequence-data: "RRIRLRPPRLPRPRPRPFIFPRP"
  result: -0.356
- sequence-data: "RRIRQRPPRLPRPRPRPYQPPRP"
  result: -0.0272
- sequence-data: "RRIRIRPPRLPRPRPRPEDSPRP"
  result: -0.0125
- sequence-data: "RRIRGRPPRLPRPRPRPWPDPRP"
  result: 0.194
- sequence-data: "RRIRVRPPRLPRPRPRPDLFPRP"
  result: -0.045
- sequence-data: "RRIRSRPPRLPRPRPRPQHFPRP"
  result: -0.00646
- sequence-data: "RRIRTRPPRLPRPRPRPRPMPRP"
  result: 0.184
- sequence-data: "RRIRIRPPRLPRPRPRPDTVPRP"
  result: -0.301
- sequence-data: "RRIRIRPPRLPRPRPRPISAPRP"
  result: -0.0879
- sequence-data: "RRIRKRPPRLPRPRPRPHQNPRP"
  result: 0.0256
- sequence-data: "RRIRWRPPRLPRPRPRPDPEPRP"
  result: 0.159
- sequence-data: "RRIRARPPRLPRPRPRPIDFPRP"
  result: 0.125
